# tested system: AR (Homo sapiens)
# Construct: endogenous in cells; host or cells: VCaP cells
# Sequence (P10275 whole entry): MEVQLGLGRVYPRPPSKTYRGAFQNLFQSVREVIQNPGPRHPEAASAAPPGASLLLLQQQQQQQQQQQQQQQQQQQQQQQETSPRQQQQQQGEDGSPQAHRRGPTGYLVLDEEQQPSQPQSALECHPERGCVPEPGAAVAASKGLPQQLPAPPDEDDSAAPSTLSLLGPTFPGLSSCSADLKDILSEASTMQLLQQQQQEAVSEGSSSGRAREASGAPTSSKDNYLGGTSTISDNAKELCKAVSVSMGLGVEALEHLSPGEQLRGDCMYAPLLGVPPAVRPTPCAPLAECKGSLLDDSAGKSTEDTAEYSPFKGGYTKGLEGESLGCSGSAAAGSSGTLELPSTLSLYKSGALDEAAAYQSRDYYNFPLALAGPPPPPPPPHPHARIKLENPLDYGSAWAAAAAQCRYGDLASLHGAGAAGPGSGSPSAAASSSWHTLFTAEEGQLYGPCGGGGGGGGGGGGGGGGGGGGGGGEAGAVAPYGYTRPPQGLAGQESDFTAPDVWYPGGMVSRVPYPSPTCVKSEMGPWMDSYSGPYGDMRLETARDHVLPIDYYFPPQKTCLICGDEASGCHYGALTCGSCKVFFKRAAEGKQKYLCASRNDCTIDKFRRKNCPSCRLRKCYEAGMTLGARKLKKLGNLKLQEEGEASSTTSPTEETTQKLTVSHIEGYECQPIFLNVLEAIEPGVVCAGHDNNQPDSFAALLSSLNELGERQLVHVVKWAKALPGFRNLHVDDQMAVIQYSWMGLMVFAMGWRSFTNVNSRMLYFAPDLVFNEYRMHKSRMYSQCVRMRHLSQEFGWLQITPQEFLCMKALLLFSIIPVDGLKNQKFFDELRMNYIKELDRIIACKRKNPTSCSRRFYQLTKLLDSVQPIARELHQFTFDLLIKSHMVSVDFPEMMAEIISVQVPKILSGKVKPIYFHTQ
# experimental details: VCAP AR Degradation Assay
# Format: cell-based
# settings: class symbols A-C, read-out: DC50
Counter-ions that a name gives are not always drawn.
outcome measure: DC50

Answered examples (5):
molecule	tested system	outcome measure	value reported
C[C@@H]1CN(CCOc2ccc(N3C(=S)N(c4ccc(C#N)c(C(F)(F)F)c4)C(=O)C34CCC4)cc2C2CC2)C[C@H](C)N1CC(=O)Nc1cccc(NC2CCC(=O)NC2=O)c1 (some centres unmarked)	AR (Homo sapiens)	DC50	< 100 nM
CC(C)c1cc(N2C(=S)N(c3ccc(C#N)c(C(F)(F)F)c3)C(=O)C2(C)C)ccc1OCCN1CCN(CC(=O)Nc2cccc(NC3CCC(=O)NC3=O)c2)[C@H](C)C1 (some centres unmarked)	AR (Homo sapiens)	DC50	100 to 500 nM
CC1(C)C(=O)N(c2ccc(C#N)c(C(F)(F)F)c2)C(=S)N1c1ccc(OCCN2CCN(CC(=O)Nc3cccc(NC4CCC(=O)NC4=O)c3)CC2)c(CCF)c1 (centres unmarked)	AR (Homo sapiens)	DC50	< 100 nM
CC1(C)C(=O)N(c2ccc(C#N)c(C(F)(F)F)c2)C(=S)N1c1ccc(OCCN2CCN(CC(=O)Nc3cc(NC4CCC(=O)NC4=O)ccc3Cl)CC2)c(Cl)c1 (centres unmarked) [Example 20, hydrochloride]	AR (Homo sapiens)	DC50	< 100 nM
C[C@@H]1CN(CCOc2ccc(N3C(=S)N(c4ccc(C#N)c(C(F)(F)F)c4)C(=O)C3(C)C)cc2CCF)CCN1CC(=O)Nc1cc(Cl)cc(NC2CCC(=O)NC2=O)c1 (some centres unmarked)	AR (Homo sapiens)	DC50	< 100 nM

List DC50 for every entry below, keeping the order given.
1. C[C@@H](C(=O)Nc1cccc(NC2CCC(=O)NC2=O)c1)N1CCN(CCOc2ccc(N3C(=S)N(c4ccc(C#N)c(C(F)(F)F)c4)C(=O)C3(C)C)cc2Cl)CC1 (some centres unmarked) [Example 21, hydrochloride]
2. CCc1cc(N2C(=S)N(c3cnc(C#N)c(C(F)(F)F)c3)C(=O)C2(C)C)ccc1OCCN1CCN(CC(=O)Nc2cccc(NC3CCC(=O)NC3=O)c2)C(C)(C)C1 (centres unmarked)
3. CC1(C)C(=O)N(c2ccc(C#N)c(C(F)(F)F)c2)C(=S)N1c1ccc(OCCN2CCN(CC(=O)Nc3cccc(NC4CCC(=O)NC4=O)c3)CC2)c(C2CCC2)c1 (centres unmarked) [Example 31, trifluoroacetate]
4. C[C@@H]1CN(CCOc2ccc(N3C(=S)N(c4cnc(C#N)c(C(F)(F)F)c4)C(=O)C34CCC4)cc2C(C)(F)F)C[C@H](C)N1CC(=O)Nc1cccc(NC2CCC(=O)NC2=O)c1 (some centres unmarked)
5. CC1(C)C(=O)N(c2ccc(C#N)c(C(F)(F)F)c2)C(=S)N1c1ccc(OCCN2CCN(CC(=O)Nc3cccc(NC4CCC(=O)NC4=O)c3)CC2)c(C(F)(F)F)c1 (centres unmarked) [Example 12, hydrochloride]
6. CCc1cc(N2C(=S)N(c3cnc(C#N)c(C(F)(F)F)c3)C(=O)C2(C)C)ccc1OCCN1CCN(CC(=O)Nc2cc(NC3CCC(=O)NC3=O)ccc2Cl)CC1 (single isomer, unassigned)
7. C[C@@H]1CN(CCOc2ccc(N3C(=S)N(c4ccc(C#N)c(C(F)(F)F)c4)C(=O)C34CCC4)cc2CCF)CCN1CC(=O)Nc1cc(Cl)cc(NC2CCC(=O)NC2=O)c1 (some centres unmarked)

< 100 nM
< 100 nM
< 100 nM
< 100 nM
100 to 500 nM
< 100 nM
< 100 nM
